# System: Wolbachia pipientis
# protocol: Anti-Wolbachia Cell-Based Screen
# Format: functional
# Set-up: scale not given: in the data most compounds retested in dose-response had high values
# details: 5 µM
Hit rate of the full screen: of about 48,000 compounds, about 13,000 (27%) showed an effect of 50% or more. The list shows a part of the results.
value.type: Percent Effect (%)
# value in %; strip the unit string

Recorded results for 5 compounds are shown here.
>>> df
                                   compound  unit_of_measure  assay_value
0  O=C(C[S+]([O-])Cc1c(F)cccc1Cl)N1CCc2sccc2C1 (stereo unspecified)                %         13.7
1  CCC(C)N1CCc2c(C(=O)N(C)Cc3ccccn3)nn(C)c2C1 (stereo unspecified)                %       -11.92
2  Cn1nc(Cn2cccn2)c2c1CN(C1CCOC1)C2.O=C(O)C(F)(F)F (stereo unspecified)                %       -10.84
3    CC(C)N1Cc2c(C(=O)N3CCN(C)CC3)nn(C)c2C1                %          107
4       O=C(CCOCC(F)(F)F)NS(=O)(=O)c1cccnc1                %        3.556

GET /values?item= O=C(CNc1nc(C(F)(F)F)cs1)N1CCc2sccc2C1 &system= Wolbachia pipientis returns Percent Effect: 8.259

GET /values?item= CCC(C)N1Cc2c(C(=O)N3CCOCC3)nn(C)c2C1.O=C(O)C(F)(F)F (stereo unspecified) &system= Wolbachia pipientis returns Percent Effect: 101.3

GET /values?item= Cc1ccccc1C(CC(=O)N1CCc2sccc2C1)NC(N)=O (stereo unspecified) &system= Wolbachia pipientis returns Percent Effect: 98.58

GET /values?item= O=C(NCc1cccnc1)C1=NN(c2ccccc2)C(=O)CN1 &system= Wolbachia pipientis returns Percent Effect: -0.2289

GET /values?item= CC(NCC(=O)N1CCc2sccc2C1)c1ccccc1F (stereo unspecified) &system= Wolbachia pipientis returns Percent Effect: 93.75

GET /values?item= O=C(CCNCc1cccc(O)c1)N1CCc2sccc2C1 &system= Wolbachia pipientis returns Percent Effect: 2.464

---

Percent Effect by entry:
# System: Wolbachia pipientis
# protocol: Anti-Wolbachia Cell-Based Screen
# Type: functional
# Parameters: scale not given: in the data most compounds retested in dose-response had high values
# details: 5 µM
The whole screen tested about 48,000 compounds, of which about 13,000 (27%) showed an effect of 50% or more. The list shows a part of the results.
# value in %; strip the unit string

Recorded results for 5 compounds are shown here.
>>> df
                                   compound  assay_value
0          O=C(CC1CCCC1)NCCNCc1cccc2c1OCCO2       -15.98
1          Cc1nc(O)cc(CCNC(=O)CN2CCCCCC2)n1      -0.8715
2  NC(=O)c1cnc(-c2ccccc2)nc1CCNC(=O)CN1CCCC1        124.4
3  Cl.NC(=O)C1CNCCN1C(=O)COc1ccccc1 (configuration not stated)          142
4   NC(=O)c1cnc(NC2CC2)nc1CCNC(=O)Cc1ccccc1        131.4

Reported Percent Effect of CS(=O)(=O)c1nccn1Cc1ccc(Cl)cc1 : -5.692

---

# Test system: Wolbachia pipientis
# protocol: Anti-Wolbachia Cell-Based Screen
# Type: functional
# Set-up: scale not given: in the data most compounds retested in dose-response had high values
# details: 5 µM
In all, about 48,000 compounds went through this assay and about 13,000 (27%) showed an effect of 50% or more. The list shows a part of the results.
Percent Effect by entry:

Recorded results for 4 compounds are shown here.
In [3]: df
Out[3]:
                                   compound  assay_value
0  NC(=O)c1ccc(C(=O)N(Cc2ccc(O)cc2)CC2CC2)cc1      -2.707%
1  Cc1ccc(CN2CCC3(CCCN3S(C)(=O)=O)CC2)s1.O=C(O)C(F)(F)F      -3.179%
2  CN(Cc1ccc(C(=O)NCC2COCCO2)c(=O)[nH]1)CC(C)(C)C (stereo unspecified)      -4.558%
3         Cc1cccc(CSc2ncc(Cl)c(C(=O)O)n2)c1       112.8%

GET /values?item= Cc1cccc(CN2CCN(C(=O)c3cnc(C)[nH]c3=O)CC2)c1 &system= Wolbachia pipientis returns Percent Effect: -2.506%

GET /values?item= CC(=O)N1CC(=O)N(c2cccnc2)CC12CCN(Cc1nccs1)C2.O=C(O)C(F)(F)F.O=C(O)C(F)(F)F (stereo unspecified) &system= Wolbachia pipientis returns Percent Effect: -2.554%

GET /values?item= Cn1ncc2ccc(C3CCCN(C(=O)Cc4cccs4)C3)nc21 (stereo unspecified) &system= Wolbachia pipientis returns Percent Effect: 73.59%

---

# System: Wolbachia pipientis
# protocol: Anti-Wolbachia Cell-Based Screen
# Format: functional
# Parameters: scale not given: in the data most compounds retested in dose-response had high values
# details: 5 µM
Among all 48,000 compounds or so, about 13,000 (27%) showed an effect of 50% or more. The list shows a part of the results.
Values of Percent Effect strictly less than 10% map to MET, and values of at least 10% map to NOT MET.

Use the examples below as a reference point.
In [3]: df
Out[3]:
                                   compound  answer_label
0  CC(=O)N1CCCCCC1C1CCN(Cc2nc(C(C)C)no2)CC1.Cl (stereo not drawn)           MET
1        N#Cc1ccc(Cl)cc1N1CCC(OC2CCOCC2)CC1           MET
2  CCOc1cc(C(=O)N2CCCC(n3nc(C)nc3C)C2)ccn1 (stereo not drawn)       NOT MET

*Q* Identify whether the compound OCc1ccc(-c2nccn2CCC2=CCCCC2)o1 records Percent Effect below 10%.
*A* MET

*Q* Identify whether the compound CC1=Nc2c(c(=O)[nH]n2C(C)C)C(c2ccc(F)c(F)c2)S1 (stereo not drawn) records Percent Effect below 10%.
*A* MET

---

Percent Effect by entry:
# Tested on: Wolbachia pipientis
# protocol: Anti-Wolbachia Cell-Based Screen
# Format: functional
# Parameters: scale not given: in the data most compounds retested in dose-response had high values
# details: 5 µM
In all, about 48,000 compounds went through this assay and about 13,000 (27%) showed an effect of 50% or more. Some of the results follow.
# value in %; strip the unit string

Recorded results for 3 molecules are shown here.
                                   molecule      value_type  unit_of_measure  assay_value
0  Cc1[nH]c(=O)c(C#N)cc1C(=O)N1C[C@@H](CN2CCCC2)C[C@H](CO)C1  Percent Effect                %        10.61
1  CC(=O)N1CCCN(C(=O)c2ccn(-c3cccc(Cl)c3)n2)CC1  Percent Effect                %        4.023
2  COC(=O)c1cccc(C(=O)N2CCN(c3cccc(C)c3C)CC2)n1  Percent Effect                %       -16.02

GET /values?item= CCOCCC(=O)N1CCCC(c2ncc[nH]2)C1 (stereo unspecified) &system= Wolbachia pipientis returns Percent Effect: -13.21

GET /values?item= Cc1noc(C)c1CN(C)c1ncnc2onc(C)c12 &system= Wolbachia pipientis returns Percent Effect: 10.95

GET /values?item= O=C(OCCF)c1cccc(C(=O)N2CCCC2)n1 &system= Wolbachia pipientis returns Percent Effect: 7.504

---

Percent Effect by entry:
# Tested on: Wolbachia pipientis
# protocol: Anti-Wolbachia Cell-Based Screen
# Format: functional
# Design: scale not given: in the data most compounds retested in dose-response had high values
# details: 5 µM
About 13,000 (27%) of roughly 48,000 compounds showed an effect of 50% or more. Some of the results follow.
# value in %; strip the unit string

Recorded results for 5 compounds are shown here.
>>> print(df.to_string())
                                   compound      value_type  assay_value
0  Cl.Fc1ccc(Cc2cnc(C3CCCN3)cn2)cc1 (stereo not given)  Percent Effect        101.6
1  CCC1CN(Cc2ccccc2)CCN1Cc1nnc(C2CCC2)o1 (stereo not given)  Percent Effect        7.114
2  O=C(C1CCOCC1)N1C[C@@H]2CN(Cc3ccsc3)CCO[C@@H]2C1.O=C(O)C(F)(F)F  Percent Effect        4.767
3  NC(=O)c1ccc(N2CCCCC2)c(NC(=O)c2cc(F)ccc2F)c1  Percent Effect       -3.666
4              COc1ccccc1OCCNc1snc(Cl)c1C#N  Percent Effect       -4.663

Now for another entry.
GET /values?item= O=C1NCCCc2[nH]c(Cc3ccc(F)cc3)nc21 &system= Wolbachia pipientis returns Percent Effect: -3.55

Where these numbers come from: ChEMBL document CHEMBL3988442
